- tested.system: T1, mouse PD-L1 (soluble protein of the kinetic measurements) (mouse, UniProt Q9EP73 19-238, limits assumed)
- T1 construct: kept apart from the His-tag protein of the ELISA; also called mPD-L1
- T1 sequence (Q9EP73 19-238 limits assumed): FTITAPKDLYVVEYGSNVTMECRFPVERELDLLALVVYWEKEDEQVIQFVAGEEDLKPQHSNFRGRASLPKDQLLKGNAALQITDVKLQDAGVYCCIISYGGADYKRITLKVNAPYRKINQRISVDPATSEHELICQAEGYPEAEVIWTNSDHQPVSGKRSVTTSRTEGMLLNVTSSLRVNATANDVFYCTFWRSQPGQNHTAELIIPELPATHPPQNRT
- protocol: BLI (Octet), antibody fixed on biosensor, PD-L1 in solution
Overview of recorded koff for various binders
Give the number; s⁻¹ is assumed, so skip it.

In the examples that follow, each entry is paired with its recorded koff.
binder	koff (s⁻¹)
ME4.B12 anti-PD-L1 antibody (IgG form) (antibody, V domains shown) VH: QVQLVESGAEVKKPGSSVKVSCKASGGTFNNYAVSWVRQAPGQGLEWMGRIIPILGIANYAQTFQGRVTITADKSTTTAYMELSSLRSEDTAVYYCARSSFGYSVGAFDIWGQGTMVTVSS VL: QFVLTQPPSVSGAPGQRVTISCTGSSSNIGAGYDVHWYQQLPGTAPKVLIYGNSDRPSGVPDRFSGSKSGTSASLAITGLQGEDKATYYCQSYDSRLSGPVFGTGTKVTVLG	0.000379
ME4.A12 anti-PD-L1 antibody (IgG form) (antibody, V domains shown) VH: QVQLVESGAEVKKPGSSVKVSCKASGGTFNNYAVSWVRQAPGQGLEWMGRIIPILGIANYAQTFQGRVTITADKSTTTAYMELSSLRSEDTAVYYCARSHWGYAHGAFDIWGQGTMVTVSS VL: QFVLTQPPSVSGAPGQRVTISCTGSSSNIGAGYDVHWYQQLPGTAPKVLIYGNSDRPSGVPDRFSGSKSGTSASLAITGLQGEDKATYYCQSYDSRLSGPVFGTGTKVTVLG	0.000817

koff recorded for this binder, ME4.B10 anti-PD-L1 antibody (IgG form) (antibody, V domains shown) VH: QVQLVESGAEVKKPGSSVKVSCKASGGTFNNYAVSWVRQAPGQGLEWMGRIIPILGIANYAQTFQGRVTITADKSTTTAYMELSSLRSEDTAVYYCARSARGYAHGAFDIWGQGTMVTVSS VL: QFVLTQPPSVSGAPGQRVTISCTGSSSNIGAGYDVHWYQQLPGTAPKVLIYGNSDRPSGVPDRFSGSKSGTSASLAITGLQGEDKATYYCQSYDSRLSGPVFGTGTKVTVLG , is 0.000422
